Target system: RSV F on RSV-A2 virus (Respiratory syncytial virus, RSV-A2, UniProt P03420 26-574)
Assay explanation: cell-based or functional assay
Recorded endpoint: Neutralization IC50 (RSV subtype A)

[
  {
    "Binder": "ADI-41557 (antibody, V domains shown, also called Ab 839; Antibody Number 839) VH: EVQLLESGPGLVKPSETLSLTCNVSGGSISSYYWSWIRQSPGKGLEWIGHIYDTGYTNYNPSLKSRVTMSVDTSKNRFSLKLDSVTAADTAVYYCARGRGWRNLYNWFDPWGQGTLVTVSS VL: DIVMTQSPATLSVSPGERATLSCRTSQSFSSMLAWYQQKPGQAPRLLIYGASTRATGIPARFSGSGSATEFTLTISNLQSEDVAVYYCQQYNSWPLTFGGGTKVEIK",
    "Neutralization IC50 (RSV subtype A)": "> 25 µg/mL"
  }
]

Turning to the following binder.
Query block: Return value of Neutralization IC50 (RSV subtype A) for input ADI-41811 (antibody, V domains shown) VH: QVQLQQSGPRLVKPSHTLSLTCVISGDSVSSGSAAWSWIRQSPSRGLEWLGRTYYRSKWYYDYAVSVKGRIIIQPDTSKNQFSLQLNSVSPEDTAVYYCARDPDSGNYFHYYGMDVWGQGTTVTVSS VL: DIVMTQSPATLSLSPGERATLSCRASQSVDVYFAWYQQKPGQAPRLLIYDASKRASGVPARFSGSASGTDFTLTISSLEPEDFAVYYCQQRAKWPPYTFGQGTKLEIK , no commentary.
Result block: > 25 µg/mL
